testedSystem: native Zea mays DHPS (Zea mays)
Construct: host or cells: maize cells (highly purified DHPS)
Sequence (P26259 55-380): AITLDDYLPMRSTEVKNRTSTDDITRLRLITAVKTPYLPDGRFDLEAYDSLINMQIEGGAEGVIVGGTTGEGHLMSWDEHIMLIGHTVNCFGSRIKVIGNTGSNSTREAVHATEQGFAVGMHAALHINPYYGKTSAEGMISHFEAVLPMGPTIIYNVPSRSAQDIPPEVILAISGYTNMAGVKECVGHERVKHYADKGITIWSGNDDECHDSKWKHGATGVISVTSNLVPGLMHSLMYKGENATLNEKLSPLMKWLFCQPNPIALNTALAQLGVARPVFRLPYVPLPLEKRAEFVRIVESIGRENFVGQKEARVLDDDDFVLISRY
assayProtocol: Lysine feedback inhibition of native maize DHPS in vitro
Type: biochemical
testParameters: native Zea mays DHPS / native plant DHP synthase, read-out: I50 of feedback inhibition by lysine
Description: For example, novel plants resulting from the present method contain extractable lysine levels at least about ten times, and preferably, at least about 50 times, e.g., about 50-250 times higher than plants of the same species which contain only native DHPS. […]
reportedMetric: IC50 (µM)
Write the number in µM without appending the unit.

Ask: For the compound shown here, NCCCC[C@H](N)C(=O)O , give the reported IC50.
Reply: 25
